Tested on: NCI-H460
assay: NCI tumour cell line growth inhibition, 48 h
The source made the active and inactive calls. No stated cut-off is given here; in the data, active = GI50 up to about 1.1 µM and inactive = higher.
Outcome (select one): active, inactive

O=c1[nH]c(=O)n(C2OC(CO)C(O)C(F)C2O)cc1F (stereo unspecified)	inactive
COc1ccc2c(c1)CCc1cc(C(N)=O)c3nnnn3c1-2	inactive
Cc1cc(Br)ccc1NC1=CC(=O)C(=O)c2ccccc21	inactive

Prompt: Recorded call for C(/C=N/N=C1NCCN1)=N\N=C1NCCN1 ?
Response: inactive

Prompt: Recorded call for O=C(/N=S(/NC(=O)c1ccccc1)C(Cl)(Cl)Cl)c1ccccc1 (stereo unspecified) ?
Response: inactive

Prompt: Recorded call for CCOC(=O)C(CCCNC(=O)OC(C)(C)C)N(Cc1ccc(OC)cc1OC)C(=O)CC(=O)CP(=O)(OCC)OCC (stereo unspecified) ?
Response: inactive

Prompt: Recorded call for Nc1nc(-c2ccccc2)cc(-c2ccc(OCc3ccccc3)cc2O)n1 ?
Response: inactive

Prompt: Recorded call for O=C(Nc1ccc(Cl)cc1)NS(=O)(=O)c1coc2ccccc2c1=O ?
Response: inactive

Prompt: Recorded call for CCOC(=O)C(=O)Nc1c(F)cc(F)cc1Br ?
Response: inactive

Prompt: Recorded call for CC(=O)N1CCc2[nH]c3ccccc3c2CC1 ?
Response: inactive

Prompt: Recorded call for COc1cc2cc(C(=O)N3C[C@H](CCl)c4c3cc(O)c3ccccc43)[nH]c2c(OC)c1OC ?
Response: active

###

Test system: SW-620
assay: NCI tumour cell line growth inhibition, 48 h
Active and inactive are the calls of the source. Cut-off read from the data, not from the text of the source: active = GI50 up to about 1.1 µM and inactive = higher.
endpoint: GI50

Examples with their reported GI50 follow.
CC(=O)C1CC[C@@H]2[C@H](CC[C@]3(C)[C@@H](O)CC[C@@H]23)[C@H]1C(=O)O (some centres undefined)	> 100 µM (inactive)
Cc1cnc(/N=c2\sc(C)cn2-c2ncc(C)s2)s1	> 100 µM (inactive)
CC(C)(C)COC(=O)C(C)(C)NC(=O)C(CC(=O)OCc1ccccc1)NC(=O)OCc1ccccc1 (centres undefined)	60.4 µM (inactive)

Now, please, on to the next compound.
Sure, the documented GI50 for CS(=O)(=O)OCOS(C)(=O)=O is 34.4 µM (inactive)

###

System: OVCAR-3
assay: NCI tumour cell line growth inhibition, 48 h
The source made the active and inactive calls. No stated cut-off is given here; in the data, active = GI50 up to about 1.1 µM and inactive = higher.
endpoint: GI50

Examples with their reported GI50 follow.
CC(=O)CC1(OC(=O)C2C(C=C(C)C)C2(C)C)C(=O)Nc2ccccc21 (configuration not stated)	54.2 µM (inactive)
COC(=O)/C=C1/CCC(C(=O)OC)N1 (configuration not stated)	> 100 µM (inactive)
O=[N+]([O-])c1ccc(-c2ccc(/C=N/n3c(S)nnc3-c3ccc(Cl)cc3)o2)cc1	27.9 µM (inactive)
Cc1cc(C)n(C(=C(C(Cl)=C(Cl)Cl)[N+](=O)[O-])n2nc(C)cc2C)n1	3.08 µM (inactive)
NC(CSS(=O)(=O)c1ccccc1)C(=O)O (configuration not stated)	> 10 µM (inactive)
C=C1C(=O)OC2(C)C3CCC(C3)C12 (configuration not stated)	53.5 µM (inactive)

GET /values?item= CCOC(=O)[C@@H]1[C@@H]2NC(=O)N[C@@]1(C)Oc1ccccc12 &system= OVCAR-3 returns GI50: > 100 µM (inactive)

###

Tested on: SNB-19
assay: NCI tumour cell line growth inhibition, 48 h
Activity calls are given as the source filed them. Rule as the data show it: active = GI50 up to about 1.1 µM and inactive = higher.
Here the recorded GI50 is given for each entry.

Examples with their reported GI50 follow.
O=c1/c(=C/c2ccc3c(c2)OCO3)sc2nnc(Cc3ccccc3)n12	> 100 µM (inactive)
O=C(CCCCCNC(=O)c1ccc(Cl)cc1)NO	15 µM (inactive)
CCOC(=O)/C1=C(\C)N(Cc2ccccc2)C(=O)c2ccccc2C(=O)c2c(O)ccc(O)c21	> 100 µM (inactive)
N#CC(Cc1ccccc1Br)N(CCC1=CCCCC1)C(c1ccccc1)c1ccccc1 (stereo unspecified)	> 100 µM (inactive)
O=C1c2cc(Cl)ccc2-n2cnnc2C2CSCN12 (stereo unspecified)	> 100 µM (inactive)

Now, please, on to the next compound.
Sure, the documented GI50 for C=CCn1c(=S)sc2c(C(=O)OCC)c3c(C)cc(C)cn3c2c1=O is > 100 µM (inactive)
